tested on: SW-620; test: Growth inhibition of human SW620 cells at 10 uM after 48 hrs by sulforhodamine B assay; type: functional; settings: SW-620, 48 h, read-out: GI
Could you please report measured inhibition of growth at 10 µM for the items listed next?
Give bare numbers, in %.

Use these answered entries as a reference point.
TEST SMILES: CC(=S)NS(=O)(=O)c1ccc2nc(-c3ccccc3)c(-c3ccccc3)nc2c1
ASSAYED SYSTEM: SW-620
UNIT DESCRIPTOR: %
VALUE MEASURED: 3.84
--
TEST SMILES: O=S(=O)(Nc1cccc2ccccc12)c1ccc2nc(-c3ccccc3)c(-c3ccccc3)nc2c1
ASSAYED SYSTEM: SW-620
UNIT DESCRIPTOR: %
VALUE MEASURED: 26.8
--
TEST SMILES: O=C(NS(=O)(=O)c1ccc2nc(-c3ccccc3)c(-c3ccccc3)nc2c1)c1ccccc1
ASSAYED SYSTEM: SW-620
UNIT DESCRIPTOR: %
VALUE MEASURED: 17.4
--
TEST SMILES: COc1ccccc1NS(=O)(=O)c1ccc2nc(-c3ccccc3)c(-c3ccccc3)nc2c1
ASSAYED SYSTEM: SW-620
UNIT DESCRIPTOR: %
VALUE MEASURED: 21.5
--
TEST SMILES: O=S(=O)(Nc1ccccn1)c1ccc2nc(-c3ccccc3)c(-c3ccccc3)nc2c1
ASSAYED SYSTEM: SW-620
UNIT DESCRIPTOR: %
VALUE MEASURED: 47.9

Please state, for each entry, its recorded inhibition of growth at 10 µM.
1. O=S(=O)(Nc1ccc(Cl)cc1)c1ccc2nc(-c3ccccc3)c(-c3ccccc3)nc2c1
2. NC(=S)NNS(=O)(=O)c1ccc2nc(-c3ccccc3)c(-c3ccccc3)nc2c1

Response given:
1: 30.3; 2: 3.72

Reference for the values: ChEMBL document CHEMBL2407075
